Tested on: HCT116 cells
protocolDescription: Lactate dehydrogenase (LDH) release assay
Format: cell-based
measurementParameters: 0% FBS 4Hr
reportedProperty: LDH: Cytotoxicity assay % Effect (%)
Answers are plain numbers, in %.

Req: What measured LDH: Cytotoxicity assay % Effect goes with CC(=O)N[C@@H](CCCCN=[N+]=[N-])C(=O)NCCC(=O)N[C@@H](CC(C)C)C(=O)N[C@H](C(=O)N[C@@H](Cc1ccccc1)C(=O)N[C@]1(C)CCCCCCC=CCCC[C@@](C)(C(=O)N[C@@H](CO)C(=O)N[C@@H](C)C(=O)N[C@@H](C)C(N)=O)NC(=O)[C@H](CC2CCC2)NC(=O)[C@H](CCC(N)=O)NC(=O)[C@H](C)NC(=O)[C@H](Cc2c[nH]c3ccccc23)NC(=O)[C@H](Cc2ccc(O)cc2)NC(=O)[C@H](Cc2c[nH]cn2)NC1=O)[C@@H](C)O [MP-175, AZIDE-ATSP-7041 (E5H)] ?
Resp: 2.645

====

protocolDescription: in vitro
measurementParameters: Nanoclick permeability assay EC50
Positions of bridges follow the written chain, without caps; N, C: chain ends. Non-standard residues stand in square brackets, D forms with d. Residues, ends and D or L forms follow the SMILES beside them. Lys(N3) = [N-]=[N+]=NCCCC[C@H](N)C(=O)O; R8 = C=CCCCCCC[C@@](C)(N)C(=O)O; Cba = N[C@@H](CC1CCC1)C(=O)O; S5 = C=CCCC[C@](C)(N)C(=O)O; βAla = NCCC(=O)O
Provide the reported log10 of cell entry EC50 of each item.
Scale: decimal log of cell entry EC50, cell entry EC50 in nM.

Some solved entries appear below for comparison.
| compound | log10 of cell entry EC50 |
| --- | --- |
| CC(=O)N[C@@H](CCCCN=[N+]=[N-])C(=O)NCCC(=O)NCC(=O)N[C@H](C(=O)N[C@@H](Cc1ccccc1)C(=O)N[C@]1(C)CCCCCCC=CCCC[C@@](C)(C(=O)N[C@@H](CO)C(=O)N[C@@H](C)C(=O)N[C@@H](C)C(N)=O)NC(=O)[C@H](CC2CCC2)NC(=O)[C@H](CCC(N)=O)NC(=O)CNC(=O)[C@H](Cc2c[nH]c3ccccc23)NC(=O)[C@H](Cc2ccc(O)cc2)NC(=O)CNC1=O)[C@@H](C)O [MP-692] (Ac-[Lys(N3)][βAla]GTF[R8]GYWGQ[Cba][S5]SAA-NH2; staple 6-13) | 3.14 |
| CC(=O)N[C@@H](CCCCN=[N+]=[N-])C(=O)NCCC(=O)N[C@@H](CCC(=O)O)C(=O)N[C@H](C(=O)N[C@@H](Cc1ccccc1)C(=O)N[C@]1(C)CCCCCCC=CCCC[C@@](C)(C(=O)N[C@@H](CO)C(=O)N[C@@H](C)C(=O)N[C@@H](C)C(N)=O)NC(=O)[C@H](CC2CCC2)NC(=O)[C@H](CCC(N)=O)NC(=O)[C@H](C)NC(=O)[C@H](Cc2c[nH]c3ccccc23)NC(=O)[C@H](Cc2ccc(O)cc2)NC(=O)[C@H](CCC(=O)O)NC1=O)[C@@H](C)O | 2.47 |
| CC(=O)N[C@@H](CCCCN=[N+]=[N-])C(=O)NCCC(=O)N[C@@H](CC(C)C)C(=O)N[C@H](C(=O)N[C@@H](CCC(=O)O)C(=O)N[C@]1(C)CCCCCCC=CCCC[C@@](C)(C(=O)N[C@@H](CO)C(=O)N[C@@H](C)C(=O)N[C@@H](C)C(N)=O)NC(=O)[C@H](CC2CCC2)NC(=O)[C@H](CCC(N)=O)NC(=O)[C@H](C)NC(=O)[C@H](Cc2c[nH]c3ccccc23)NC(=O)[C@H](Cc2ccc(O)cc2)NC(=O)[C@H](CCC(=O)O)NC1=O)[C@@H](C)O | 2.78 |
| CC(=O)N[C@@H](CCCCN=[N+]=[N-])C(=O)NCCC(=O)NCC(=O)N[C@H](C(=O)N[C@@H](Cc1ccccc1)C(=O)N[C@]1(C)CCCCCCC=CCCC[C@@](C)(C(=O)N[C@@H](CO)C(=O)N[C@@H](C)C(=O)N[C@@H](C)C(N)=O)NC(=O)[C@H](CC2CCC2)NC(=O)[C@H](CCC(N)=O)NC(=O)[C@H](C)NC(=O)[C@H](Cc2c[nH]c3ccccc23)NC(=O)[C@H](Cc2ccc(O)cc2)NC(=O)[C@H](CCC(=O)O)NC1=O)[C@@H](C)O [MP-261] (Ac-[Lys(N3)][βAla]GTF[R8]EYWAQ[Cba][S5]SAA-NH2; staple 6-13) | 2.44 |
| CC(=O)N[C@@H](CCCCN=[N+]=[N-])C(=O)NCCC(=O)N[C@@H](CC(C)C)C(=O)N[C@H](C(=O)N[C@@H](Cc1ccccc1)C(=O)N[C@]1(C)CCCCCCC=CCCC[C@@](C)(C(=O)N[C@@H](CO)C(=O)N[C@@H](C)C(=O)N[C@@H](C)C(N)=O)NC(=O)[C@H](CCC(N)=O)NC(=O)[C@H](Cc2ccc(O)cc2)NC(=O)[C@H](Cc2c[nH]c3ccccc23)NC(=O)[C@H](CC2CCC2)NC(=O)[C@H](CCC(=O)O)NC(=O)[C@H](C)NC1=O)[C@@H](C)O [MP-205] (Ac-[Lys(N3)][βAla]LTF[R8]AE[Cba]WYQ[S5]SAA-NH2; staple 6-13) | 2.44 |
| CC(=O)N[C@@H](CCCCN=[N+]=[N-])C(=O)NCCC(=O)N[C@@H](CC(C)C)C(=O)N[C@H](C(=O)N[C@@H](CO)C(=O)N[C@]1(C)CCCCCCC=CCCC[C@@](C)(C(=O)N[C@@H](CO)C(=O)N[C@@H](C)C(=O)N[C@@H](C)C(N)=O)NC(=O)[C@H](CO)NC(=O)[C@H](CCC(N)=O)NC(=O)[C@H](C)NC(=O)[C@H](CO)NC(=O)[C@H](Cc2ccc(O)cc2)NC(=O)[C@H](CCC(=O)O)NC1=O)[C@@H](C)O [MP-3352] (Ac-[Lys(N3)][βAla]LTS[R8]EYSAQS[S5]SAA-NH2; staple 6-13) | 3.94 |

Req: What measured log10 of cell entry EC50 goes with CC(=O)N[C@@H](CCCCN=[N+]=[N-])C(=O)NCCC(=O)N[C@@H](CC(C)C)C(=O)N[C@H](C(=O)N[C@@H](Cc1ccccc1)C(=O)N[C@]1(C)CCCCCCC=CCCC[C@@](C)(C(=O)N[C@@H](CO)C(=O)N[C@@H](C)C(=O)N[C@@H](CCC(=O)O)C(N)=O)NC(=O)[C@H](CC2CCC2)NC(=O)[C@H](CCC(N)=O)NC(=O)[C@H](C)NC(=O)[C@H](Cc2c[nH]c3ccccc23)NC(=O)[C@H](Cc2ccc(O)cc2)NC(=O)[C@H](CCC(=O)O)NC1=O)[C@@H](C)O ?
Resp: 3.12

====

Provide the reported pEC50 of each item.
protocolDescription: Lactate dehydrogenase (LDH) release assay
Format: cell-based
measurementParameters: LDH: Cytotoxicity assay: EC50
Positions of bridges follow the written chain, without caps; N, C: chain ends. Non-standard residues stand in square brackets, D forms with d. Residues, ends and D or L forms follow the SMILES beside them. Lys(N3) = [N-]=[N+]=NCCCC[C@H](N)C(=O)O; R8 = C=CCCCCCC[C@@](C)(N)C(=O)O; Cba = N[C@@H](CC1CCC1)C(=O)O; S5 = C=CCCC[C@](C)(N)C(=O)O; βAla = NCCC(=O)O
Answers are plain numbers, as −log10 of the molar value.

| molecule | reportedProperty | assayResult |
| --- | --- | --- |
| CC(=O)N[C@@H](CCCCN=[N+]=[N-])C(=O)NCCC(=O)N[C@@H](CC(C)C)C(=O)N[C@H](C(=O)N[C@@H](Cc1ccccc1)C(=O)N[C@]1(C)CCCCCCC=CCCC[C@@](C)(C(=O)N[C@@H](CO)C(=O)N[C@@H](C)C(=O)N[C@@H](C)C(N)=O)NC(=O)[C@H](CC2CCC2)NC(=O)[C@H](CCC(N)=O)NC(=O)[C@H](C)NC(=O)[C@H](Cc2c[nH]c3ccccc23)NC(=O)[C@H](Cc2ccccc2)NC(=O)[C@H](CCC(=O)O)NC1=O)[C@@H](C)O [MP-028] (Ac-[Lys(N3)][βAla]LTF[R8]EFWAQ[Cba][S5]SAA-NH2; staple 6-13) | pEC50 | 5.07 |

For each of the items listed, what is its pEC50?
1. CC(=O)N[C@@H](CCCNC(=N)N)C(=O)N[C@@H](CCCNC(=N)N)C(=O)NCCC(=O)N[C@@H](CCCCN=[N+]=[N-])C(=O)N[C@@H](CC(C)C)C(=O)N[C@H](C(=O)N[C@@H](Cc1ccccc1)C(=O)N[C@]1(C)CCCCCCC=CCCC[C@@](C)(C(=O)N[C@@H](CO)C(=O)N[C@@H](C)C(=O)N[C@@H](C)C(N)=O)NC(=O)[C@H](CC2CCC2)NC(=O)[C@H](CCC(N)=O)NC(=O)[C@H](C)NC(=O)[C@H](Cc2c[nH]c3ccccc23)NC(=O)[C@H](Cc2ccc(O)cc2)NC(=O)[C@H](CCC(=O)O)NC1=O)[C@@H](C)O
2. CC(=O)N[C@@H](CCCNC(=N)N)C(=O)N[C@@H](CCCNC(=N)N)C(=O)NCCC(=O)N[C@@H](CC(C)C)C(=O)N[C@H](C(=O)N[C@@H](Cc1ccccc1)C(=O)N[C@]1(C)CCCCCCC=CCCC[C@@](C)(C(=O)N[C@@H](CO)C(=O)N[C@@H](C)C(=O)N[C@@H](C)C(N)=O)NC(=O)[C@H](CC2CCC2)NC(=O)[C@H](CCC(N)=O)NC(=O)[C@H](C)NC(=O)[C@H](Cc2c[nH]c3ccccc23)NC(=O)[C@H](Cc2ccc(O)cc2)NC(=O)[C@H](CCC(=O)O)NC1=O)[C@@H](C)O
3. CC(=O)N[C@@H](CC(C)C)C(=O)N[C@H](C(=O)N[C@@H](Cc1ccccc1)C(=O)N[C@]1(C)CCCCCCC=CCCC[C@@](C)(C(=O)N[C@@H](CO)C(=O)N[C@@H](C)C(=O)N[C@@H](C)C(N)=O)NC(=O)[C@H](CC2CCC2)NC(=O)[C@H](CC(C)C)NC(=O)[C@H](CCC(N)=O)NC(=O)[C@H](C)NC(=O)[C@H](Cc2ccc(O)cc2)NC(=O)[C@H](CCC(=O)O)NC1=O)[C@@H](C)O [MP-364] (Ac-LTF[R8]EYAQL[Cba][S5]SAA-NH2; staple 4-11)

Resp:
1. 4.58
2. 4.42
3. 4.80

Cited source: paper PMC10786919
